target: Hexose transporter 1 (Plasmodium falciparum); assay: ST_JUDE_LEISH: Cytotoxicity at 2uM final concentration against transgenic Leishmania Mexicana promastigotes LmPfHT that are glucose transport deficient and complemented with the Plasmodium falciparum hexose transporter. Activity is measured by DNA content using SYBR green in vitro; assay type: functional
metric-name: inhibition (%)
Report the figure in % without appending any unit label.

Below are worked cases with known answers.
INSERT INTO measurements (compound, system_under_test, result_units, measured) VALUES
  ('CC1CN(Cc2cccc(-c3ccc(-c4nc5ccccc5[nH]4)cc3)c2)CC(C)O1 (centres undefined)', 'Hexose transporter 1 (Plasmodium falciparum)', '%', 4.42),
  ('Cc1nc(C)c(CC(=O)Nc2cccc(-c3cccc(-c4nc5cc(C(F)(F)F)ccc5[nH]4)c3)c2)s1', 'Hexose transporter 1 (Plasmodium falciparum)', '%', 2.61),
  ('O=C(Nc1ccc(C(F)(F)F)cc1)c1ccc(NCCCN2CCCCCC2)c([N+](=O)[O-])c1', 'Hexose transporter 1 (Plasmodium falciparum)', '%', 6.55),
  ('N#Cc1ccc(N2CCN(Cc3cccc(-c4ccc(-c5nc6ccccc6[nH]5)cc4)c3)CC2)nc1', 'Hexose transporter 1 (Plasmodium falciparum)', '%', 3.68),
  ('COc1ccc2ncc(F)c([C@@H](O)CN3CCC(NCc4ccc5c(c4)NCCS5)CC3)c2n1', 'Hexose transporter 1 (Plasmodium falciparum)', '%', 8.01);

# input Please report the recorded inhibition for COc1ccc(Nc2nc(NCc3ccco3)c3ccccc3n2)cc1 .
# output 20

# input Quick check: inhibition of Clc1cc(Nc2ncnc3cc(C#C[C@H]4CCCN4)sc23)cc2nc(Cc3ccccc3)[nH]c12 ?
# output -0.56

# input Name the reported inhibition value associated with the compound COc1cc2cc(C(=O)Nc3ccccc3)c(N)nc2cc1OC
# output 1.61

# input Requested read-out: inhibition. Entry: CC1CC(C)CN(CCCNc2ccc(C(=O)Nc3ccc(C(F)(F)F)cc3)cc2[N+](=O)[O-])C1 (centres undefined)
# output 0.64

# input Using the record for O=C(Nc1ccc(OC2CCN(Cc3ccc(F)cc3)C2)cc1)c1ccco1 (centres undefined) , report its inhibition.
# output 2.86

# input What value of inhibition has been recorded for this entry: O=C(CCCC(=O)Nc1ccc(C2=NCCN2)cc1)Nc1ccc(C2=NCCN2)cc1
# output 0.54

# input Tell me the measured inhibition of O=C1C(c2ccccc2)=C(Nc2ccc(Cl)cc2)c2ccccc21 , please.
# output 1.45

# input Value lookup for inhibition; key = COc1cc(CN2CCC(C(=O)Nc3ccc(-c4cccc(C)c4)cc3)CC2)ccc1O
# output 7.03

# input Which value of inhibition has been reported for O=C(NCCc1cccc(F)c1)c1ccc(N2CCN(c3ccncc3)CC2)cn1 in the records?
# output 4.37

# input Recorded inhibition of COc1cccc(CCc2c(CCNCCCCCCNCCc3ccccc3)ccc(OC)c2OC)c1 , please.
# output 102

# input Suppose we examine the compound Clc1ncnc2scc(-c3ccc(Br)cc3)c12 ; what inhibition value has been reported?
# output 6.35

# input Any idea what inhibition was measured for C(=NN=c1cc(-c2ccccc2)[nH]c2ccccc12)c1cccnc1 ?
# output 11.7

# input Report inhibition for Cc1cccc2nc(-c3cccc(-c4cccc(NC(=O)Cc5ccc[n+]([O-])c5)c4)c3)[nH]c12 please.
# output 1.78

# input Could you share which inhibition value was measured for Cc1cc(Oc2ccc(-n3ccnc3)cc2)nc(N2CCN(CCCN3CCCC3)CC2)n1 ?
# output 5.53

# input Which value of inhibition has been reported for COc1ccc(Br)cc1/C=C/C(=O)Nc1ccc(C2CCCN(C)C2)cc1 (centres undefined) in the records?
# output 2.73

# input Find the recorded inhibition belonging to COc1ccc(CNC(=O)Nc2cc3cc(-c4ccc(CN(C)C)cc4)ccc3n3c(C)nnc23)cc1 and report it.
# output 2.93

# input Entry CCOc1ccc(C(=O)Nc2cc(Cl)ccc2O)cc1Cl has what inhibition?
# output 0.11

# input Quick one: inhibition of CC(=O)Nc1sc(C)c(C)c1CN1CCc2ccccc2C1 ?
# output 0.49

# input Any idea what its inhibition is? The compound is COc1cc(-c2nc(C(C)(C)CN)[nH]c2-c2ccncc2)ccc1Br
# output 11.3

# input Given Cc1cc(OCC2CCN(c3ccc(C(=O)NC4CC4)cn3)CC2)ccc1F , state its recorded inhibition.
# output 1.45

* * *

biological target: Glucose transporter (Leishmania mexicana) (UniProt O61059); test: ST_JUDE_LEISH: Cytotoxicity at 2uM final concentration against transgenic Leishmania Mexicana promastigotes LmGT2 that are glucose transport deficient and complemented with the L. Mexicana glucose transporter 2. Activity is measured by DNA content using SYBR green in vitro; assay type: functional
Each entry below carries its recorded inhibition.
Write down the numeric answer in % and omit the unit.

Examples with answers:
INSERT INTO assay_data (compound, result_units, measured) VALUES
  ('Cc1ccc2[nH]c3c(NCCCN(C)C)ncnc3c2c1', '%', -0.28),
  ('CC(C)COc1ccc(Cl)cc1Cc1nc(-c2nc3ccc(CN4CCCCC4)cc3[nH]2)co1', '%', 2.91),
  ('Cc1[nH]c2ccccc2c1C(=O)C(C)Sc1nnc(-c2ccccc2Br)[nH]1 (stereo not given)', '%', 0.86),
  ('CNC(=O)c1cnc(Nc2ccc(N3CCN(C)CC3)c(C)c2)nc1NC', '%', 3.79),
  ('CCN(CC)CCOc1c(Cl)cc(Cl)cc1CNCCCNc1cc(=O)c2ccccc2[nH]1', '%', 4.06),
  ('Cc1cc(NC(=O)c2sc3ccccc3c2O)no1', '%', 0.64),
  ('O=C(/C=C/c1ccc(C(F)(F)F)cc1)NCCCCCN1CCCN(C(=O)Nc2ccc(Cl)c(Cl)c2)CC1', '%', -0.19),
  ('NC(=O)c1cc(-c2ccccc2)cc2c(C3CCC(NCc4ccccc4)C3)c[nH]c12 (stereo not given)', '%', 0.8),
  ('O=C(CCc1ccccc1)N[C@H](Cc1c[nH]c2ccccc12)C(=O)N1CCC(NCc2ccc3c(c2)Cc2ccccc2-3)CC1', '%', 7.1),
  ('C=Cc1sc(CNCCCNc2cc(=O)c3ccccc3[nH]2)c(C)c1Br', '%', -0.58);

# input Consider the compound shown here: CCc1ccnc2c(N3CCCC3=O)cc(C(=O)N[C@@H](Cc3ccccc3)[C@H](O)CNC3CCOCC3)cc12 What is its recorded inhibition?
# output 0.64

# input Entry under review: CN(C)CCCOc1ccc(-c2nc(-c3ccc4c(c3)CCC4=NO)c(-c3ccncc3)[nH]2)cc1 . Reported inhibition?
# output 1.24

# input Request the reported inhibition associated with O=C(Nc1ccc(OC2CCN(Cc3ccccc3)CC2)c(Cl)c1)c1ccsc1
# output 2.24

# input Please give the measured inhibition for this compound: O=C(NC1CCN(Cc2ccccc2O)C1)c1ccc(-c2ccccc2)cc1 (stereo not given)
# output 1.16

# input Would you mind telling me what inhibition value was observed for CCN(CC)c1ccccc1CNC(=O)c1cc(Cl)c(N)cc1OC ?
# output 8.59

* * *

target: Hexose transporter 1 (Plasmodium falciparum) (UniProt O97467); assay: ST_JUDE_LEISH: Cytotoxicity at 2uM final concentration against transgenic Leishmania Mexicana promastigotes LmPfHT that are glucose transport deficient and complemented with the Plasmodium falciparum hexose transporter. Activity is measured by DNA content using SYBR green in vitro; format: functional
metric-name: inhibition (%)
Numbers only; they are read as %.

Below are worked cases with known answers.
INSERT INTO results (compound, system_under_test, measured) VALUES
  ('O=c1c(NCCCN(Cc2ccc(F)cc2)c2ccccn2)c(NCc2ccncc2)c1=O', 'Hexose transporter 1 (Plasmodium falciparum) (UniProt O97467)', 3.53),
  ('CN1CCCc2ccc(NC(=O)c3cc(-c4ccc(Cl)cc4)cs3)cc2C1', 'Hexose transporter 1 (Plasmodium falciparum) (UniProt O97467)', 4.89),
  ('COc1ccc(CNC(=O)c2cnc3c(O)cccc3c2Nc2cccc(NC(=O)c3ccc(Cl)c(Cl)c3)c2)cc1', 'Hexose transporter 1 (Plasmodium falciparum) (UniProt O97467)', 78.8),
  ('Cc1ccc2nc(C)cc(N/N=C/c3ccc([N+](=O)[O-])cc3)c2c1', 'Hexose transporter 1 (Plasmodium falciparum) (UniProt O97467)', 101),
  ('CCC[C@@H]1CCN[C@H]([C@H](O)c2ccnc3ccc(OC)cc23)C1', 'Hexose transporter 1 (Plasmodium falciparum) (UniProt O97467)', 3.5),
  ('Cc1cccc2nc(-c3cccc(-c4cccc(NC(=O)CCc5c[nH]cn5)c4)c3)[nH]c12', 'Hexose transporter 1 (Plasmodium falciparum) (UniProt O97467)', 0.27),
  ('O=C(NCCCCN1CCC(c2ccc3c(c2OC(=O)c2ccc(NC(=O)c4ccc(Cl)cc4)cc2)CCCC3)CC1)c1ccc(NC(=O)c2ccc(Cl)cc2)cc1', 'Hexose transporter 1 (Plasmodium falciparum) (UniProt O97467)', 0.15),
  ('Cc1cc(N2CCCCC2)nc2ccc(NC(=O)c3cccc([N+](=O)[O-])c3)cc12', 'Hexose transporter 1 (Plasmodium falciparum) (UniProt O97467)', 4.4),
  ('CC(C)N(Cc1cnc(N)c(C#N)n1)c1ccc(Cl)c(Cl)c1', 'Hexose transporter 1 (Plasmodium falciparum) (UniProt O97467)', 2.68),
  ('Cc1cc(Nc2ccncc2)n2nc(C)c(-c3ccc(Cl)cc3)c2n1', 'Hexose transporter 1 (Plasmodium falciparum) (UniProt O97467)', 9.35);

API: the following record is the query input.
# input Request - read-out inhibition | tested on Hexose transporter 1 (Plasmodium falciparum) (UniProt O97467) | compound N#Cc1ccc(-c2ccc3nc(N4CCCN(C5CCC5)CC4)ccc3c2)cc1
# output 7

// provenance: ChEMBL document CHEMBL3433997
